From: ChEMBL document CHEMBL5724696

- Tested on: TERT-RPE1
- PROTOCOL NOTES: Here: values are normalized to the negative (DMSO; defined as 0% autophagy induction) and positive (250nM Torin1; mTOR inhibitor; defined as maximal inducer of autophagy = 100%) control compounds and represented as % of autophagy induction. […] The impact of autophagy induction on cells is complex and depends on the affected target. As such, the magnitude of a phenotype may not be equally mirrored in the %-value of autophagy induction and vice versa. The dynamics of the induction may indicate the mode of activation: e.g. activation via phosphorylation or a signaling cascade may occur fast, while activation via transcription factors may take considerably longer. […] Of note, treatment concentrations may be sub-optimal for specific compounds, leading to false negative annotations.
- Assay type: functional, Homo sapiens
- EXPERIMENTAL SETUP: Compound Concentration 1 uM, Timepoint 60 hours, Culturing Media DMEM/F12 (1:1), 1 % Penicillin/Streptomycin, 10% Fetal bovin serum Add-On: No, Screening Media Control DMEM/F12 (1:1), Screening Media Samples DMEM/F12 (1:1)
PROPERTY LABEL: autophagy induction (%)
Give just the number in %; leave the unit off.

Example entries begin here.
[[record]]
molecule = "COc1ccc(-c2ccc3cc(C(=O)O)ccc3c2)cc1C12CC3CC(CC(C3)C1)C2"
study_system = "TERT-RPE1"
property_label = "autophagy induction"
unit = "%"
test_result = 30.465

[[record]]
molecule = "CCc1ccc(N(CC(C)C)S(=O)(=O)c2ccc(OCC3CCOCC3)c(CO)c2)cc1"
study_system = "TERT-RPE1"
property_label = "autophagy induction"
unit = "%"
test_result = 5.376

[[record]]
molecule = "C=C1/C(=C\\C=C2/CCC[C@]3(C)[C@@H]([C@H](C)/C=C/[C@H](C)C(C)C)CC[C@@H]23)C[C@@H](O)C[C@@H]1O"
study_system = "TERT-RPE1"
property_label = "autophagy induction"
unit = "%"
test_result = -4.588

[[record]]
molecule = "CN(CCOc1ccc(CC2SC(=O)NC2=O)cc1)c1ccccn1 (configuration not stated)"
study_system = "TERT-RPE1"
property_label = "autophagy induction"
unit = "%"
test_result = -11.1596

[[record]]
molecule = "Cl.O=C(O)Cc1cccc(OCCCN(Cc2cccc(C(F)(F)F)c2Cl)CC(c2ccccc2)c2ccccc2)c1"
study_system = "TERT-RPE1"
property_label = "autophagy induction"
unit = "%"
test_result = -6.3424


Problem: Please report the recorded autophagy induction for `CC(C)c1onc(-c2c(Cl)cccc2Cl)c1COc1ccc(/C=C/c2cccc(C(=O)O)c2)c(Cl)c1` .
Result: -22.8602

Problem: Please report the recorded autophagy induction for `CC(C=CC1=C(C)CCCC1(C)C)=CC=CC(C)=CC(=O)O` .
Result: 39.1731

Problem: Please report the recorded autophagy induction for `C=C1/C(=C\C=C2/CCC[C@]3(C)[C@@H]([C@H](C)CCCC(C)(C)O)CC[C@@H]23)C[C@@H](O)C[C@@H]1O` .
Result: -14.2726

Problem: Please report the recorded autophagy induction for `O=C(O)c1ccc2cc(-c3ccc(O)c(C45CC6CC(CC(C6)C4)C5)c3)ccc2c1` .
Result: 12.49

Problem: Please report the recorded autophagy induction for `COc1ccc(OC(=O)N(CC(=O)O)Cc2ccc(OCCc3nc(-c4ccccc4)oc3C)cc2)cc1` .
Result: -9.533

Problem: Please report the recorded autophagy induction for `CC(C)(O)c1cn(-c2ccc(-c3cccc(S(C)(=O)=O)c3)cc2)c(C(C)(C)c2ccccc2Cl)n1` .
Result: -24.6575

Problem: Please report the recorded autophagy induction for `COC(=O)/C=C/c1cccc(N(Cc2ccc(-c3ccc(N(C)C)cc3)cc2)C(=O)C2CCCCC2)c1` .
Result: -24.9579

Problem: Please report the recorded autophagy induction for `CCO[C@H](COc1ccc(C(F)(F)F)cc1)CSc1ccc(OCC(=O)[O-])c(C)c1.[Na+]` .
Result: 3.397

Problem: Please report the recorded autophagy induction for `Cc1nc(-c2ccc(C(F)(F)F)cc2)sc1C(=O)NCc1ccc(OC(C)(C)C(=O)O)cc1` .
Result: -2.481

----------
- Test system: TERT-RPE1
- PROTOCOL NOTES: Here: values are normalized to the negative (DMSO; defined as 0% autophagy induction) and positive (250nM Torin1; mTOR inhibitor; defined as maximal inducer of autophagy = 100%) control compounds and represented as % of autophagy induction. […] The impact of autophagy induction on cells is complex and depends on the affected target. As such, the magnitude of a phenotype may not be equally mirrored in the %-value of autophagy induction and vice versa. The dynamics of the induction may indicate the mode of activation: e.g. activation via phosphorylation or a signaling cascade may occur fast, while activation via transcription factors may take considerably longer. […] Of note, treatment concentrations may be sub-optimal for specific compounds, leading to false negative annotations.
- Format: functional, Homo sapiens
- EXPERIMENTAL SETUP: Compound Concentration 0.5 uM, Timepoint 60 hours, Culturing Media DMEM/F12 (1:1), 1 % Penicillin/Streptomycin, 10% Fetal bovin serum Add-On: No, Screening Media Control DMEM/F12 (1:1), Screening Media Samples DMEM/F12 (1:1)
Documented autophagy induction across a set of compounds
Give just the number in %; leave the unit off.

Example entries begin here.
[[record]]
chemical_structure = "O=C(O)C1CN(Cc2ccc(OCc3ccc(Cl)c(Cl)c3)cc2)C1"
property_label = "autophagy induction"
unit = "%"
test_result = -16.3767

[[record]]
chemical_structure = "Cc1nc(C(=O)N2CCC[C@H]2Cc2nnc(-c3ccccc3)o2)c(-c2ccccc2F)s1"
property_label = "autophagy induction"
unit = "%"
test_result = -7.252

[[record]]
chemical_structure = "C/C(=N\\NC(=O)[C@@H]1C(=O)NC[C@H]1c1ccccc1)c1cccc(Br)c1"
property_label = "autophagy induction"
unit = "%"
test_result = -7.294


Problem: Please report the recorded autophagy induction for `C[C@H](Cc1cc2c(c(C(N)=O)c1)N(CCCO)CC2)NCCOc1ccccc1OCC(F)(F)F` .
Result: -13.239

Problem: Please report the recorded autophagy induction for `COc1ccc(S(=O)(=O)c2cc(OC)ccc2S(=O)(=O)c2ccc([C@H](C)NS(C)(=O)=O)cc2)cc1` .
Result: -11.3186

Problem: Please report the recorded autophagy induction for `N#Cc1cccc(C(=O)Nc2cc(-c3ccccc3)nn2-c2ccccc2)c1` .
Result: 19.4837

Problem: Please report the recorded autophagy induction for `CC(C)C[C@H](NC(=O)N1CCCCCC1)C(=O)N[C@H](Cc1cn(C)c2ccccc12)C(=O)N[C@H](Cc1ccccn1)C(=O)O` .
Result: -17.0217

----------
- System: U2OS
- PROTOCOL NOTES: Here: values are normalized to the negative (DMSO; defined as 0% autophagy induction) and positive (250nM Torin1; mTOR inhibitor; defined as maximal inducer of autophagy = 100%) control compounds and represented as % of autophagy induction. […] The impact of autophagy induction on cells is complex and depends on the affected target. As such, the magnitude of a phenotype may not be equally mirrored in the %-value of autophagy induction and vice versa. The dynamics of the induction may indicate the mode of activation: e.g. activation via phosphorylation or a signaling cascade may occur fast, while activation via transcription factors may take considerably longer. […] Of note, treatment concentrations may be sub-optimal for specific compounds, leading to false negative annotations.
- Type: functional, Homo sapiens
- EXPERIMENTAL SETUP: Compound Concentration 0.5 uM, Timepoint 60 hours, Culturing Media DMEM, 1 % Penicillin/Streptomycin, 10% Fetal bovin serum Add-On: No, Screening Media Control DMEM, Screening Media Samples DMEM
PROPERTY LABEL: autophagy induction (%)
Give just the number in %; leave the unit off.

Example entries begin here.
[[record]]
compound = "CN(C(=O)Cc1ccc(Cl)c(Cl)c1)C(CN1CCCC1)c1cccc(OCC(=O)O)c1.Cl (stereo not given)"
test_result = 1.175

[[record]]
compound = "CCCCCNC(=O)NS(=O)(=O)c1cc([N+](=O)[O-])ccc1NC1CCCCC1"
test_result = -21.9841

[[record]]
compound = "C[C@H](CO)Nc1nc(SCc2cccc(Cl)c2F)nc2[nH]c(=O)sc12"
test_result = 0.5148

[[record]]
compound = "CCOC(=O)c1cc(C#N)c(N2CCC(C(=O)NS(=O)(=O)Cc3ccccc3)CC2)nc1C"
test_result = -13.2748


Here's the next entry for you.
Problem: Please report the recorded autophagy induction for `Cc1cn2cc(CC(=O)N3CCC4(CC3)CN(Cc3ccc(-n5nccn5)cc3Cl)C4)nc2s1` .
Result: -9.0407

----------
- Test system: TERT-RPE1
- PROTOCOL NOTES: Here: values are normalized to the negative (DMSO; defined as 0% autophagy induction) and positive (250nM Torin1; mTOR inhibitor; defined as maximal inducer of autophagy = 100%) control compounds and represented as % of autophagy induction. […] The impact of autophagy induction on cells is complex and depends on the affected target. As such, the magnitude of a phenotype may not be equally mirrored in the %-value of autophagy induction and vice versa. The dynamics of the induction may indicate the mode of activation: e.g. activation via phosphorylation or a signaling cascade may occur fast, while activation via transcription factors may take considerably longer. […] Of note, treatment concentrations may be sub-optimal for specific compounds, leading to false negative annotations.
- Assay type: functional, Homo sapiens
- EXPERIMENTAL SETUP: Compound Concentration 0.5 uM, Timepoint 60 hours, Culturing Media DMEM/F12 (1:1), 1 % Penicillin/Streptomycin, 10% Fetal bovin serum Add-On: No, Screening Media Control DMEM/F12 (1:1), Screening Media Samples DMEM/F12 (1:1)
PROPERTY LABEL: autophagy induction (%)
Give just the number in %; leave the unit off.

[[record]]
molecule = "CN(C(=O)Cc1ccc(Cl)c(Cl)c1)C(CN1CCCC1)c1cccc(OCC(=O)O)c1.Cl (stereo not given)"
property_label = "autophagy induction"
test_result = -20.341


Here's the next entry for you.
Problem: Please report the recorded autophagy induction for `CCOC(=O)c1cc(C#N)c(N2CCC(C(=O)NS(=O)(=O)Cc3ccccc3)CC2)nc1C` .
Result: -14.4044
